System: HOP-62 complex spheroids with HUVEC/MSC, viability
Method Notes: Anticancer human tumor HOP-62 cell line growth inhibition [RAS];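 note: spheroids exposed to agents for seven days before readout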;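 for viability, T/C: 100% = DMSO vehicle control viability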
Protocol Conditions: second compound 10 µM; first compound 0.316 µM; stronger effect = lower value
Test Readout: viability, T/C (%)
Report only the number, with the unit % understood.

Some compounds with known viability, T/C results, for comparison:
>>> endpoint_value("O=C(c1ccc(F)c(F)c1Nc1ccc(I)cc1F)N1CC(O)([C@@H]2CCCCN2)C1 + C#Cc1c(F)ccc2cc(O)cc(-c3ncc4c(N5CC6CCC(C5)N6)nc(OCC56CCCN5CC(F)C6)nc4c3F)c12")
12.5
>>> endpoint_value("NC1c2ccccc2OC12CCN(c1cnc3c(N4CCCc5ncccc54)n[nH]c3n1)CC2 (centres undefined) + C#Cc1c(F)ccc2cc(O)cc(-c3ncc4c(N5CC6CCC(C5)N6)nc(OCC56CCCN5CC(F)C6)nc4c3F)c12")
7.6
>>> endpoint_value("CC1(O)CCCC1n1c(=O)c(C(F)F)cc2cnc(NC3CCN(S(C)(=O)=O)CC3)nc21 (centres undefined) + C#Cc1c(F)ccc2cc(O)cc(-c3ncc4c(N5CC6CCC(C5)N6)nc(OCC56CCCN5CC(F)C6)nc4c3F)c12")
27.8

Switching to the query record.
Query :: Please report the recorded viability, T/C for C=CC(=O)Nc1cc(Nc2nccc(-c3cn(C)c4ccccc34)n2)c(OC)cc1N(C)CCN(C)C + C#Cc1c(F)ccc2cc(O)cc(-c3ncc4c(N5CC6CCC(C5)N6)nc(OCC56CCCN5CC(F)C6)nc4c3F)c12 .
Result :: 35.4

====

Test system: HOP-62 complex spheroids with HUVEC/MSC, viability
Method Notes: Anticancer human tumor HOP-62 cell line growth inhibition [RAS];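 note: spheroids exposed to agents for seven days before readout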
Protocol Conditions: curve of first compound; second compound 0.003 µM
Test Readout: IC50

>>> endpoint_value("C=CC(=O)Nc1cc(Nc2nccc(-c3cn(C)c4ccccc34)n2)c(OC)cc1N(C)CCN(C)C + CCn1c(-c2cccnc2C(C)OC)c2c3cc(ccc31)N1CCOC(CC(NC(=O)C(C(C)C)N(C)C(=O)C3(F)CCN(C(=O)C#CC(C)(C)N(C)C)CC3)C(=O)N3CCCC(N3)C(=O)OCC(C)(C)C2)C1")
"> 1 µM"
>>> endpoint_value("C[C@@H](NC(=O)c1ncnc(N)c1Cl)c1ncc(C(=O)Nc2cc(C(F)(F)F)c(Cl)cn2)s1 + CCn1c(-c2cc(N3CCN(C)CC3)cnc2C(C)OC)c2c3cc(ccc31)-c1csc(n1)CC(NC(=O)C1CC1C)C(=O)N1CCCC(N1)C(=O)OCC(C)(C)C2")
"> 10 µM"
>>> endpoint_value("CCN1CCN(Cc2ccc(Nc3ncc(F)c(-c4cc(F)c5nc(C)n(C(C)C)c5c4)n3)nc2)CC1 + CCn1c(-c2cccnc2C(C)OC)c2c3cc(ccc31)N1CCOC(CC(NC(=O)C(C(C)C)N(C)C(=O)C3(F)CCN(C(=O)C#CC(C)(C)N(C)C)CC3)C(=O)N3CCCC(N3)C(=O)OCC(C)(C)C2)C1")
"> 1 µM"

Switching to the query record.
Query :: Please report the recorded IC50 for C=CC(=O)N1CCN(c2nc(OCC3CCCN3C)nc3c(F)c(-c4nc(N)cc(C)c4C(F)(F)F)c(Cl)cc23)C(C)C1 (centres undefined) + CCn1c(-c2cc(N3CCN(C)CC3)cnc2C(C)OC)c2c3cc(ccc31)-c1csc(n1)CC(NC(=O)C1CC1C)C(=O)N1CCCC(N1)C(=O)OCC(C)(C)C2 .
Result :: > 1 µM
